Target: human factor Xa (Homo sapiens, UniProt P00742)
Construct: 25 μl human factor Xa (Enzyme Research Laboratories, Inc; South Bend, Ind.) in TBS-PEG; purchased Enzyme Research Laboratories, Inc; South Bend, Ind
Sequence (P00742 235-488 limits assumed): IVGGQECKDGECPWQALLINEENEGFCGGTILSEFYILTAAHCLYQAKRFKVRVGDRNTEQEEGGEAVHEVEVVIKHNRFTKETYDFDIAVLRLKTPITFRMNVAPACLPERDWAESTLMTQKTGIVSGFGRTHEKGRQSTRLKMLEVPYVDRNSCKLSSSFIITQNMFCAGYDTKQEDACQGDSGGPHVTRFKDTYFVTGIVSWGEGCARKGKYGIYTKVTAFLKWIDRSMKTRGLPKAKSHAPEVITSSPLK
Sequence (P00742 41-179 partner limits assumed): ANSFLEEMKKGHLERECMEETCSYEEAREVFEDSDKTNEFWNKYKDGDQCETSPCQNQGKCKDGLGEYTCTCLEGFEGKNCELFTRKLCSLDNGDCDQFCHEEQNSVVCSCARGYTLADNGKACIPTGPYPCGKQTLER
Assay: Factor Xa assay (chromogenic, substrate S-2765)
Type: biochemical
Details: inhibition constant for inhibition of factor Xa; IC50 corrected for substrate competition; 0.5 nM enzyme, 140 μM S-2765, 25° C., pH 7.8; read-out: Ki(FXa)
OBSERVATION TYPE: pKi
In simple prose, pKi is minus the logarithm base ten of a concentration in moles per litre.

Sample records with pKi:
COMPOUND	ENDPOINT VALUE
CC(C)N1CCC(NC(=O)c2cc3cccnc3n2Cc2cc(-c3ccc(Cl)s3)on2)CC1 [Example 1]	8.22
CC(C)N1CCC(NC(=O)c2cc3ncccc3n2Cc2cc(-c3ccc(Cl)s3)on2)CC1 [Example 5]	8.40

Please examine the following record next.
According to the records, this compound CC(C)N1CCC(NC(=O)c2cc3cc(C(N)=O)cnc3n2Cc2cc(-c3ccc(Cl)s3)on2)CC1 [Example 4] displays pKi of 7.15
